assay-procedure: reducers of endogenous Her2 protein level, primary screen, SKBR3 breast tumor cells, AlphaScreen, ATP viability (AID 461);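 on viability: percent of carrier control wells set as 100% viability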
settings: 18-24 h, measured here: SKBR3 viability, ATP luminescence, at 10 µM
measured-property: viability

{"molecule": "CCOc1cc(S(=O)(=O)N2CCC(Cc3ccccc3)CC2)c(OCC)cc1-n1cnnn1", "result": "77.5%"}
{"molecule": "CCOC(=O)Cn1c(N2CCOCC2)nc2c1c(=O)[nH]c(=O)n2C", "result": "106%"}

(Q) Need viability, item O=C(Nc1ccc(OC(=O)c2ccco2)cc1)c1ccco1
(A) 96.5%

(Q) Can you check Cc1cc2ncn(N)c2cc1C next?
(A) 99.5%

(Q) Can you check CC1(C)CC(=O)C2=C(C1)OC(N)=C(C#N)C2C1CC=CCC1 (configuration not stated) next?
(A) 108%

(Q) Can you check c1cn(C23CC4CC(CC(C4)C2)C3)cn1 next?
(A) 113%

(Q) Can you check O=S1(=O)CCC(NS(=O)(=O)/C=C/c2ccccc2)C1 (configuration not stated) next?
(A) 110%

###

assay-procedure: HUVEC growth inhibition – cell-based, human, primary screen (AID 575);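 further: 100% = median of untreated cell wells with 0.1% DMSO on each plate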
settings: HUVEC proliferation, CellTiter-Glo luminescence, 72 h; at 10 µM; stronger effect = lower value
measured-property: viability (%)
Report the value in % with no unit label.

{"molecule": "CCOc1ccc2[nH]c(=O)c(C(c3nnnn3CC3CCCO3)N3CCc4ccccc4C3)cc2c1 (stereo unspecified)", "viability, %": 81.1}
{"molecule": "CCNCC(O)COCC(O)CNCC (stereo unspecified)", "viability, %": 88.3}
{"molecule": "COCCOc1nc2ccccc2nc1C", "viability, %": 88.4}
{"molecule": "COc1ccc(C(=O)c2ccccc2)c(O)c1", "viability, %": 97.7}
{"molecule": "CCc1nnc(NC(=O)CN2CCN(c3ccccc3OC)CC2)s1", "viability, %": 64.9}
{"molecule": "COCCN(CCOC)S(=O)(=O)c1ccc(C(=O)Nc2nnc(C3CC3)o2)cc1", "viability, %": 80.5}

(Q) Need viability, item Nc1ccc(-c2ccc(N)cc2C(F)(F)F)c(C(F)(F)F)c1
(A) 75.1

(Q) Can you check CCN1C(=O)OC2(CCCCC2)C1(C)O (stereo unspecified) next?
(A) 101

(Q) Can you check COC(=O)c1cc2ccsc2n1CC(=O)Nc1cc(C)cc(C)c1 next?
(A) 64

(Q) Can you check O=C(CN1CCC(n2nnc3cc(F)ccc32)CC1)Nc1ccc2c(c1)CCC2 next?
(A) 79.5

###

assay-procedure: growth suppression of yeast trafficking mutant, preliminary HTS, modulators of trafficking downstream of Golgi apparatus project, 1536-format plate, OD 615 nm (AID 637)
settings: yeast transport mutant growth, absorbance 615 nm, 18 h; stronger effect = higher value
measured-property: inhibition (%)
Report the value in % with no unit label.

{"molecule": "Cc1c(C(=O)OC2CCCCC2)[nH]c2c1C(=O)CC(C)(C)C2", "inhibition, %": -17.5}
{"molecule": "Cn1c(=O)[nH]c(=O)c2[nH]c(NCCCN3CCOCC3)nc21", "inhibition, %": -0.79}
{"molecule": "Cc1ccc2c(c1)-c1cc(C)nn1C(c1ccc3c(c1)OCO3)N2 (centres undefined)", "inhibition, %": -3.55}

(Q) Need inhibition, item O=C(NCCCN1CCCC1=O)c1cncc(Br)c1
(A) 6.56

(Q) Can you check COc1ccc(CNC(=O)COC(=O)c2n[nH]c3ccccc23)cc1OC next?
(A) 2.38

(Q) Can you check O=C1CCCCCN1CSc1nc2ccccc2s1 next?
(A) -2.62

(Q) Can you check O=C(Nc1cccc(C(F)(F)F)c1)c1cccnc1N1CCCC1 next?
(A) -1.29

(Q) Can you check CCOC(=O)C1=C(C)NC(SC(C)=O)=NC1c1ccc(OC(C)=O)c(OC)c1 (centres undefined) next?
(A) -6.36

(Q) Can you check Cc1[nH]c(=O)[nH]c(=O)c1S(=O)(=O)N(C)Cc1ccccc1 next?
(A) -4.6

(Q) Can you check COc1cccc(CN2CCN(C(=O)c3ccco3)CC2)c1OC next?
(A) 0.95

(Q) Can you check COc1ccc(CN2CC(C(=O)NCc3ccccn3)CC2=O)cc1 (centres undefined) next?
(A) -4.03

###

Catalogue of inhibition values
assay-procedure: growth suppression of yeast trafficking mutant, preliminary HTS, modulators of trafficking downstream of Golgi apparatus project, 1536-format plate, OD 615 nm (AID 637)
settings: yeast transport mutant growth, absorbance 615 nm, 18 h; stronger effect = higher value
Report the value in % with no unit label.

Take a look at these entries with their results.
{"molecule": "COc1ccc(-c2ccc(-c3nnc(-c4ccncc4)o3)cc2)cc1", "measured-property": "inhibition", "units-text": "%", "result-number": 0}
{"molecule": "O=C(Cn1c(SCC(=O)N2CCCc3ccccc32)nc2ccccc21)N1CCCC1", "measured-property": "inhibition", "units-text": "%", "result-number": -2.38}
{"molecule": "CCOc1ncccc1C(=O)OCC(=O)N1CC(=O)Nc2ccccc21", "measured-property": "inhibition", "units-text": "%", "result-number": -4.92}

(Q) Need inhibition, item CCCOC(=O)C1[C@H]2C(=O)N(CCCOC)C[C@]23C=C[C@H]1O3 (stereo not given in full)
(A) -3.17

(Q) Can you check O=C1CCn2nc(-c3ccc(Cl)cc3)cc2N1 next?
(A) 1.83

(Q) Can you check CCOC(=O)c1ccccc1NC(=O)c1ccc(NS(C)(=O)=O)cc1 next?
(A) -3.81

(Q) Can you check Cc1onc(-c2c(Cl)cccc2Cl)c1C(=O)N1CCc2ccccc21 next?
(A) 2.74

(Q) Can you check CCn1c(COc2cccc3ccccc23)nnc1SCC(N)=O next?
(A) 0.18

(Q) Can you check Cn1c(/C(C#N)=C/Nc2ccccn2)nc2ccccc21 next?
(A) 29.5

(Q) Can you check CC(=O)NC(Cc1c[nH]c2ccccc12)C(=O)OCC(=O)Nc1cc(C)on1 (stereo not given) next?
(A) -7.83

###

measured-on: Receptor tyrosine-protein kinase erbB-2 (Homo sapiens)
assay-procedure: reducers of endogenous Her2 protein level, primary screen, SKBR3 breast tumor cells, AlphaScreen, ATP viability (AID 461);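 on Her2 level: lower value means less Her2 protein in the cells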;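 on viability: percent of carrier control wells set as 100% viability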
settings: 18-24 h, at 10 µM, stronger effect = lower value
Catalogue of Her2 level values
Report the value in % with no unit label.

Take a look at these entries with their results.
{"compound": "C=CCN1C(=O)/C(=C2\\SC(N3CCOCC3)=NC2=O)c2cc(Br)ccc21", "Her2 level [%]": 84.5}
{"compound": "Cc1nn(-c2ccccc2)c(Cl)c1C(=O)NCC(=O)O", "Her2 level [%]": 96}
{"compound": "Cc1c(C(=O)N2CCOCC2)oc2ccc(S(=O)(=O)N3CCCC3)cc12", "Her2 level [%]": 109}
{"compound": "CCOC(=O)c1cc2sccc2n1Cc1ccccc1", "Her2 level [%]": 116}
{"compound": "Cc1ccc(NC(=O)C2CCCN(S(=O)(=O)c3cnc[nH]3)C2)cc1F (configuration not stated)", "Her2 level [%]": 94}
{"compound": "CS(=O)(=O)c1ccc2nc(NC(=O)C3C4C=CC(C4)C3C(=O)O)sc2c1 (configuration not stated)", "Her2 level [%]": 154}

Could you now consider this next compound?
(Q) Need Her2 level, item Cc1cc(C)c2c(n1)nn1c(N3CCOCC3)cc(C)nc21
(A) 87.5

###

assay-procedure: HUVEC growth inhibition – cell-based, human, primary screen (AID 575);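 further: 100% = median of untreated cell wells with 0.1% DMSO on each plate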
settings: HUVEC proliferation, CellTiter-Glo luminescence, 72 h; at 10 µM
Active and inactive are the calls of the source.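 How the source made its calls: active means viability at or below 30% in both replicate assays; inconclusive means viability at or below 30% in just one of the two assays; inactive means the rest.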
Hi there, use one of these labels in your reply, thanks! active, inactive

Answered cases to consult:
{"compound": "CN1CC(=O)N(CC(=O)NCCc2ccc(F)cc2)c2ccccc2C1=O", "category-label": "inactive"}
{"compound": "C=Cn1c(C(=O)O)cc(CC)c1-c1ccccc1", "category-label": "inactive"}
{"compound": "COc1cccc(OC)c1OCCN1CCN(C(=O)c2ccco2)CC1", "category-label": "inactive"}
{"compound": "CCCN(C(=O)CSc1nnc(-c2ccoc2C)n1N)C1CCS(=O)(=O)C1 (stereo not drawn)", "category-label": "inactive"}
{"compound": "Cc1cc(NC(c2cccnc2)c2c(C)[nH]c3ccccc23)no1 (stereo not drawn)", "category-label": "inactive"}
{"compound": "CCCOc1ccccc1NC(=O)c1c(-c2ccccc2)noc1C", "category-label": "inactive"}
{"compound": "CCOC(=O)C1=C(C)Nc2ncnn2C1c1cc(OC)ccc1OC (stereo not drawn)", "category-label": "inactive"}
{"compound": "Cn1c(=O)c2c(nc(SCCCC#N)n2Cc2ccccc2F)n(C)c1=O", "category-label": "inactive"}
{"compound": "CN(C1CCCCC1)S(=O)(=O)c1ccc(NC(=O)c2ccco2)cc1", "category-label": "inactive"}
{"compound": "COc1cccc(C2=Nn3c(nnc3-c3ccccc3O)SC2)c1", "category-label": "inactive"}

(Q) Lab log entry: Cn1c(=O)[nH]c2cc3ccccc3cc21 — outcome as called in the assay?
(A) active

(Q) Can you check Cc1cccc(NC(=O)c2cc3n(n2)C(C(F)(F)F)CC(c2ccc4c(c2)OCO4)N3)c1 (stereo not drawn) next?
(A) inactive

(Q) Can you check O=c1c2c3c(sc2nc2sc(C4CC4)nn12)CCCC3 next?
(A) inactive
